Values from patent US20130066055A1

- MEASUREMENT NOTES: Caco-2 flux assay for cell permeability
- Format: in vitro ADME
- EXPERIMENTAL PARAMETERS: human, Caco-2 cells, basal to apical
Counter-ions that a name gives are not always drawn. Square brackets hold non-standard residues; d marks the D form. Peptide text beside a SMILES is read from it. * marks the point of attachment. X2 = CC(C)[C@@H](C(=O)*)N(C)CCCCCCN1C(=O)CC(SC[C@H](N)C(=O)O)C1=O; X1 = CC(C)[C@@H](C(=O)*)N(C)CCCCCC(=O)NCCCC[C@H](N)C(=O)O; Dolaproine = CO[C@@H]([C@@H]1CCCN1)[C@@H](C)C(=O)O; Dil = CC[C@H](C)[C@H](NC)[C@@H](CC(=O)O)OC; Oxazinan2yl(1,2) = C1CCN(*)OC1
Assign Papp B→A at 2 h to each entry below.
Give just the number in ×10⁻⁶ cm/s; leave the unit off.

Task item: Which value of Papp B→A at 2 h has been reported for CC[C@H](C)[C@@H]([C@@H](CC(=O)N1CCC[C@H]1[C@H](OC)[C@@H](C)C(=O)N[C@@H](Cc1c[nH]c2ccccc12)C(=O)N1CCCCO1)OC)N(C)C(=O)[C@@H](NC(=O)[C@H](C(C)C)N(C)CCCCCC(=O)NCCCC[C@H](N)C(=O)O)C(C)C [Example 115, trifluoroacetate] (X1-V[Dil][Dolaproine]W-{Oxazinan2yl(1,2)}) in the records?
Reply: 0.2

Task item: Which value of Papp B→A at 2 h has been reported for CC[C@H](C)[C@@H]([C@@H](CC(=O)N1CCC[C@H]1[C@H](OC)[C@@H](C)C(=O)N[C@@H](Cc1c[nH]c2ccccc12)C(=O)O)OC)N(C)C(=O)[C@@H](NC(=O)[C@H](C(C)C)N(C)CCCCCCN1C(=O)CC(SC[C@H](N)C(=O)O)C1=O)C(C)C (stereo partly shown) [Example 75] (X2-V[Dil][Dolaproine]W-OH) in the records?
Reply: 0.1

Task item: Which value of Papp B→A at 2 h has been reported for CC[C@H](C)[C@@H]([C@@H](CC(=O)N1CCC[C@H]1[C@H](OC)[C@@H](C)C(=O)N[C@@H](Cc1c[nH]c2ccccc12)C(N)=O)OC)N(C)C(=O)[C@@H](NC(=O)[C@H](C(C)C)N(C)CCCCCCN1C(=O)CC(SC[C@H](N)C(=O)O)C1=O)C(C)C (stereo partly shown) [Example 74] (X2-V[Dil][Dolaproine]W-NH2) in the records?
Reply: 0.5

Task item: Which value of Papp B→A at 2 h has been reported for CC[C@H](C)[C@@H]([C@@H](CC(=O)N1CCC[C@H]1[C@H](OC)[C@@H](C)C(=O)N[C@@]1(C(=O)N2CCCCO2)C[C@@H]1c1ccccc1)OC)N(C)C(=O)[C@@H](NC(=O)[C@H](C(C)C)N(C)CCCC(=O)NNC(=O)CCCCCN1C(=O)CC(SC[C@H](N)C(=O)O)C1=O)C(C)C (stereo partly shown) in the records?
Reply: 0.25

Task item: Which value of Papp B→A at 2 h has been reported for CC[C@H](C)[C@@H]([C@@H](CC(=O)N1CCC[C@H]1[C@H](OC)[C@@H](C)C(=O)N[C@@H](Cc1c[nH]c2ccccc12)C(=O)NCc1ccccc1)OC)N(C)C(=O)[C@@H](NC(=O)[C@H](C(C)C)N(C)CCCC(=O)NNC(=O)CCCCCN1C(=O)CC(SC[C@H](N)C(=O)O)C1=O)C(C)C (stereo partly shown) in the records?
Reply: 0.7

Task item: Which value of Papp B→A at 2 h has been reported for CC[C@H](C)[C@@H]([C@@H](CC(=O)N1CCC[C@H]1[C@H](OC)[C@@H](C)C(=O)N[C@@H](Cc1c[nH]c2ccccc12)C(=O)O)OC)N(C)C(=O)[C@@H](NC(=O)[C@H](C(C)C)N(C)CCCCCC(=O)NCCCC[C@H](N)C(=O)O)C(C)C [Example 116] (X1-V[Dil][Dolaproine]W-OH) in the records?
Reply: 0.1

Task item: Which value of Papp B→A at 2 h has been reported for CC[C@H](C)[C@@H]([C@@H](CC(=O)N1CCC[C@H]1[C@H](OC)[C@@H](C)C(=O)N[C@@H](Cc1c[nH]c2ccccc12)C(=O)O)OC)N(C)C(=O)[C@@H](NC(=O)[C@H](C(C)C)N(C)CCCC(=O)NNC(=O)CCCCCN1C(=O)CC(SC[C@H](N)C(=O)O)C1=O)C(C)C (stereo partly shown) in the records?
Reply: 0.16

* * *

Assign Papp B→A at 2 h to each entry below.
- MEASUREMENT NOTES: Caco-2 flux assay for cell permeability
- Type: in vitro ADME
- EXPERIMENTAL PARAMETERS: human, Caco-2 cells, basal to apical
Structures can show the parent of a compound that is named as a salt. Square brackets hold non-standard residues; d marks the D form. Peptide text beside a SMILES is read from it. * marks the point of attachment. X4 = C[C@@H](O)[C@@H](C(=O)*)N(C)CCCCCC(=O)NCCCC[C@H](N)C(=O)O; X1 = CC(C)[C@@H](C(=O)*)N(C)CCCCCC(=O)NCCCC[C@H](N)C(=O)O; Dolaproine = CO[C@@H]([C@@H]1CCCN1)[C@@H](C)C(=O)O; Dil = CC[C@H](C)[C@H](NC)[C@@H](CC(=O)O)OC; Oxazinan2yl(1,2) = C1CCN(*)OC1
Give just the number in ×10⁻⁶ cm/s; leave the unit off.

Task item: Which value of Papp B→A at 2 h has been reported for CC[C@H](C)[C@@H]([C@@H](CC(=O)N1CCC[C@H]1[C@H](OC)[C@@H](C)C(=O)N[C@@H](Cc1ccc(O)cc1)C(=O)N1CCCCO1)OC)N(C)C(=O)[C@@H](NC(=O)[C@H](C(C)C)N(C)CCCCCC(=O)NCCCC[C@H](N)C(=O)O)C(C)C [Example 127, trifluoroacetate] (X1-V[Dil][Dolaproine]Y-{Oxazinan2yl(1,2)}) in the records?
Reply: 0.15

Task item: Which value of Papp B→A at 2 h has been reported for CC[C@H](C)[C@@H]([C@@H](CC(=O)N1CCC[C@H]1[C@H](OC)[C@@H](C)C(=O)N[C@@H](Cc1c[nH]c2ccccc12)C(=O)N1CCCCO1)OC)N(C)C(=O)[C@@H](NC(=O)[C@H]([C@@H](C)O)N(C)CCCCCC(=O)NCCCC[C@H](N)C(=O)O)C(C)C [Example 126, trifluoroacetate] (X4-V[Dil][Dolaproine]W-{Oxazinan2yl(1,2)}) in the records?
Reply: 0.18

Task item: Which value of Papp B→A at 2 h has been reported for CC[C@H](C)[C@@H]([C@@H](CC(=O)N1CCC[C@H]1[C@H](OC)[C@@H](C)C(=O)N[C@@H](Cc1c[nH]c2ccccc12)C(N)=O)OC)N(C)C(=O)[C@@H](NC(=O)[C@H](C(C)C)N(C)CCCC(=O)NNC(=O)CCCCCN1C(=O)CC(SC[C@H](N)C(=O)O)C1=O)C(C)C (stereo partly drawn) in the records?
Reply: 0.2

* * *

- ASSAYED SYSTEM: P-glycoprotein (P-gp, ABCB1) (Homo sapiens)
- Construct: expressed in transfected cells; host or cells: LLC-PK1 (pig kidney) cells transfected with human MDR1 (L-MDR1 cells)
- Sequence (P08183 whole entry): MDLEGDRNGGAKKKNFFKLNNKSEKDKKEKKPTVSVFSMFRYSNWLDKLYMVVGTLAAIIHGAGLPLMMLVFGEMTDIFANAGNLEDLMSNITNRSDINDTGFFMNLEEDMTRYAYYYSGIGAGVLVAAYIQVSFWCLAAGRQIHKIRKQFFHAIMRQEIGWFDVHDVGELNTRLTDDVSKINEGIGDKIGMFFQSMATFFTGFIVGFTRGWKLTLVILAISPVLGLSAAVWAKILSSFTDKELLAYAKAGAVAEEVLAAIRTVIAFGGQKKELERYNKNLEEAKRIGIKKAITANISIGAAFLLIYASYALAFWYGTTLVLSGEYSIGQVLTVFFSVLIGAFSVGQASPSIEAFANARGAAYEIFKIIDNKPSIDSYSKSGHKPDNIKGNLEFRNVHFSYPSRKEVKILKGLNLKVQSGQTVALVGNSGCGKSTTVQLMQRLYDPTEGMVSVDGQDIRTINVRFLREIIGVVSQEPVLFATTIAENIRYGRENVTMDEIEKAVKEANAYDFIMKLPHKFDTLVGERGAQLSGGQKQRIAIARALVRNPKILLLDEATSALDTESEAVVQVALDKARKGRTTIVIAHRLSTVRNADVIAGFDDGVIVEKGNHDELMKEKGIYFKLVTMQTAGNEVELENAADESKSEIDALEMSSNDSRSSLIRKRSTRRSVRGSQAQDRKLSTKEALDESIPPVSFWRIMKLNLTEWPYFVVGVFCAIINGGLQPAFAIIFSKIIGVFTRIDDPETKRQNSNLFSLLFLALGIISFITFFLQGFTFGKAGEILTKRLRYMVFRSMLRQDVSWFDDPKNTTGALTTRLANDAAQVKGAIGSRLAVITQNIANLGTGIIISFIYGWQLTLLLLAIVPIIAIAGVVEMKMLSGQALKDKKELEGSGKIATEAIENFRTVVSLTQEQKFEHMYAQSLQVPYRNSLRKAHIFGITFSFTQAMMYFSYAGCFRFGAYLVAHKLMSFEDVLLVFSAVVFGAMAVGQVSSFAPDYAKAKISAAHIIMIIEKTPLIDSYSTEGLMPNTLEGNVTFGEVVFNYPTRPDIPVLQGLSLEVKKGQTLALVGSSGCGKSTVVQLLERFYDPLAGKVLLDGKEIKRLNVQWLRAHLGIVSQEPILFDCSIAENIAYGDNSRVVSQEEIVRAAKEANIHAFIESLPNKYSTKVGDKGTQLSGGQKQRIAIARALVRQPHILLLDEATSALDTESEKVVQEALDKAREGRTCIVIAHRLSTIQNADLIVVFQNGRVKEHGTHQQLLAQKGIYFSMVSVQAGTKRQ
- MEASUREMENT NOTES: Flux assay in P-gp overexpressing L-MDR1 cells
- Format: in vitro ADME
- EXPERIMENTAL PARAMETERS: LLC-PK1, basal to apical
Counter-ions that a name gives are not always drawn. Square brackets hold non-standard residues; d marks the D form. Peptide text beside a SMILES is read from it. * marks the point of attachment. X2 = CC(C)[C@@H](C(=O)*)N(C)CCCCCCN1C(=O)CC(SC[C@H](N)C(=O)O)C1=O; X1 = CC(C)[C@@H](C(=O)*)N(C)CCCCCC(=O)NCCCC[C@H](N)C(=O)O; Dolaproine = CO[C@@H]([C@@H]1CCCN1)[C@@H](C)C(=O)O; Dil = CC[C@H](C)[C@H](NC)[C@@H](CC(=O)O)OC; Oxazinan2yl(1,2) = C1CCN(*)OC1
Assign Papp B→A at 2 h to each entry below.
A bare number is not enough; add the unit after it.

Task item: Which value of Papp B→A at 2 h has been reported for CC[C@H](C)[C@@H]([C@@H](CC(=O)N1CCC[C@H]1[C@H](OC)[C@@H](C)C(=O)N[C@@H](Cc1c[nH]c2ccccc12)C(=O)N1CCCCO1)OC)N(C)C(=O)[C@@H](NC(=O)[C@H](C(C)C)N(C)CCCCCC(=O)NCCCC[C@H](N)C(=O)O)C(C)C [Example 115, trifluoroacetate] (X1-V[Dil][Dolaproine]W-{Oxazinan2yl(1,2)}) in the records?
Reply: 0.6 ×10⁻⁶ cm/s

Task item: Which value of Papp B→A at 2 h has been reported for CC[C@H](C)[C@@H]([C@@H](CC(=O)N1CCC[C@H]1[C@H](OC)[C@@H](C)C(=O)N[C@@H](Cc1c[nH]c2ccccc12)C(N)=O)OC)N(C)C(=O)[C@@H](NC(=O)[C@H](C(C)C)N(C)CCCC(=O)NNC(=O)CCCCCN1C(=O)CC(SC[C@H](N)C(=O)O)C1=O)C(C)C (stereo partly drawn) in the records?
Reply: 0.3 ×10⁻⁶ cm/s

Task item: Which value of Papp B→A at 2 h has been reported for CC[C@H](C)[C@@H]([C@@H](CC(=O)N1CCC[C@H]1[C@H](OC)[C@@H](C)C(=O)N[C@@H](Cc1c[nH]c2ccccc12)C(=O)O)OC)N(C)C(=O)[C@@H](NC(=O)[C@H](C(C)C)N(C)CCCCCCN1C(=O)CC(SC[C@H](N)C(=O)O)C1=O)C(C)C (stereo partly drawn) [Example 75] (X2-V[Dil][Dolaproine]W-OH) in the records?
Reply: 0.4 ×10⁻⁶ cm/s
